Assay: growth inhibition of GSK3B-pretreated HCT116 cells – cell-based, CellTiter-Glo, 0.2 to 20 µM (AID 1117336)
Settings: HCT116 viability after GSK3B inhibitor, at 20 µM, stronger effect = higher value
Collected viability decrease values appear next to each entry.
Numeric answer only, unit % assumed.

// known answers, use as guide
CCO[C@H](Cc1ccc(OCCc2ccc(OS(C)(=O)=O)cc2)cc1)C(=O)O ... 8.6
Nc1nc(Cl)nc2c1ncn2[C@@H]1O[C@H](CO)[C@@H](O)[C@@H]1F ... 44.1
C[C@H](NCCc1ccc(O)cc1)[C@H](O)c1ccc(O)cc1 ... -8.6
COc1cc2c(c(OC)c1OC)-c1ccc(OC)c(=O)cc1[C@@H](NC(C)=O)CC2 ... 97.2
CCOC(=O)c1ccccc1O ... 4.2
CC(C)(C)CC(C)(C)c1cc(Cc2cc(C(C)(C)CC(C)(C)C)cc(-n3nc4ccccc4n3)c2O)c(O)c(-n2nc3ccccc3n2)c1 ... 9.1

Query: Report measured viability decrease; entry is Cc1c(C(=O)NN2CCCCC2)nn(-c2ccc(Cl)cc2Cl)c1-c1ccc(Cl)cc1
Response: 109

Query: Note down viability decrease recorded for CCN(CC)CCNC(=O)c1c(C)[nH]c(/C=C2\C(=O)Nc3ccc(F)cc32)c1C
Response: 108

Query: Supply reported viability decrease belonging to this molecule: CCCCCCCCOc1ccccc1C(=O)Nc1ccc(C(=O)OCC[N+](C)(CC)CC)cc1
Response: 99.7

Query: Determine its reported viability decrease: CCCCCCCCCCCCCCCCO
Response: -1.35

Query: Give me measured viability decrease, please, for this molecule: CCCCCCCCCCCCCCCC[N+](C)(C)CCN(Cc1ccc(OC)cc1)c1ncccn1
Response: 100

Query: Give viability decrease for the following molecule: OCc1ccccn1
Response: 4.8

###

Assay: stimulators of nuclear beta-catenin in C2C12, primary screen, imaging, WNT3A-conditioned medium, mouse C2C12, NPC library (AID 1117326); further: reference of the scale not given here
Conditions: stimulation, at 2 µM, stronger effect = higher value
Documented nuclear beta-catenin stimulation across a set of compounds
A number alone suffices; assume %.

CNCc1ccccc1 ... 0.6
CC(=O)SC[C@@H](C)C(=O)N1CCC[C@H]1C(=O)N[C@@H](Cc1ccccc1)C(=O)O ... -1.6
CC1CCc2c(N3CCC(O)CC3)c(F)cc3c(=O)c(C(=O)O)cn1c23 (stereo unspecified) ... 0.1
COC(=O)C1=C(C)NC(C)=C(C(=O)OC(C)(C)CN(C)CCC(c2ccccc2)c2ccccc2)C1c1cccc([N+](=O)[O-])c1 (stereo unspecified) ... -0.9
Nc1ccn(C[C@@H](CO)OCP(=O)(O)O)c(=O)n1 ... 0.4
O=C(Nc1ccc(C(=O)O)c(O)c1)c1ccccc1 ... 0.4
Cc1cccc(C)c1NC(=O)CC12CCCN1CCC2 ... 1.3
CN1CC(=O)N/C1=N/C(=O)Nc1cccc(Cl)c1 ... -0.6

Query: Provide only the value of recorded nuclear beta-catenin stimulation for O=C(O)CCCCC(=O)O
Response: -0.9

Query: Return reported nuclear beta-catenin stimulation. Input compound: O=C(CS(=O)Cc1ccco1)NC/C=C\COc1cc(CN2CCCCC2)ccn1 (stereo unspecified)
Response: -0.8

Query: Supply recorded nuclear beta-catenin stimulation for COCCOC(=O)C1=C(C)NC(C)=C(C(=O)OC/C=C/c2ccccc2)C1c1cccc([N+](=O)[O-])c1 (stereo unspecified) here.
Response: 0.8

Query: Provide one value: measured nuclear beta-catenin stimulation of O=C(CCCl)NCc1ccccc1
Response: 8.3

Query: Return the recorded nuclear beta-catenin stimulation value; entry: CC(C)(C)NC[C@H](O)COc1cccc2c1CCCC2=O
Response: 0.3

Query: Supply recorded nuclear beta-catenin stimulation for Nc1c(CC(=O)O)cccc1C(=O)c1ccccc1 here.
Response: 0.5

Query: Please indicate nuclear beta-catenin stimulation recorded for OC(CCCN1CCCCC1)(c1ccccc1)c1ccccc1
Response: -0.2

Query: Answer with reported nuclear beta-catenin stimulation of Cc1ccccc1C(=O)Nc1ccc(C(=O)N2CCCC(O)c3cc(Cl)ccc32)c(C)c1 (stereo unspecified)
Response: 1.4

Query: Note nuclear beta-catenin stimulation for the compound shown: CC(=O)OCC(=O)[C@@]1(O)CCC2C3CCC4=CC(=O)CC[C@]4(C)C3[C@@H](O)C[C@@]21C (stereo partly specified)
Response: -0.8

Query: Item CC1(C)[C@@H]2CC[C@@]1(C)C(=O)C2 : provide nuclear beta-catenin stimulation
Response: 0.6

Query: Answer with the recorded nuclear beta-catenin stimulation of COCC(=O)O[C@]1(CCN(C)CCCc2nc3ccccc3[nH]2)CCc2cc(F)ccc2[C@@H]1C(C)C only.
Response: -2.2

Query: Give the value of nuclear beta-catenin stimulation reported for the following: CC1(C)CCC(C)(C)c2cc(NC(=O)c3ccc(C(=O)O)cc3)ccc21
Response: 8.5
